- System: Aspergillus fumigatus
- method-description: Antifungal activity against Aspergillus fumigatus 7544 assessed as fungal growth inhibition incubated for 48 hrs by broth microdilution method
- Assay type: functional
assay-readout: MIC

- COc1ccc(CNC(=O)c2c(O)c3sccc3n(Cc3ccccc3)c2=O)cc1: > 64 mg/L
- O=C(NCc1ccncc1)c1c(O)c2sccc2n(Cc2ccccc2)c1=O: 8 mg/L
- O=C(NCCc1cccs1)c1c(O)c2sccc2n(Cc2ccccc2)c1=O: > 64 mg/L

Prompt: Report MIC from Aspergillus fumigatus testing of `O=C(NCc1cccc(Cl)c1)c1c(O)c2sccc2n(Cc2ccccc2)c1=O`
Response: > 64 mg/L

Prompt: Report MIC from Aspergillus fumigatus testing of `O=C(NCc1cc(F)cc(F)c1)c1c(O)c2sccc2n(Cc2ccccc2)c1=O`
Response: > 64 mg/L

Prompt: Report MIC from Aspergillus fumigatus testing of CC(NC(=O)c1c(O)c2sccc2n(Cc2ccccc2)c1=O)c1ccc(F)cc1 (stereo not given)
Response: > 64 mg/L

Numbers sourced from ChEMBL document CHEMBL5137080.
